// data source = patent US9242970B2

- target.of.assay: human orexin-2 receptor (Homo sapiens (Human), UniProt O43614)
- Sequence (O43614 whole entry): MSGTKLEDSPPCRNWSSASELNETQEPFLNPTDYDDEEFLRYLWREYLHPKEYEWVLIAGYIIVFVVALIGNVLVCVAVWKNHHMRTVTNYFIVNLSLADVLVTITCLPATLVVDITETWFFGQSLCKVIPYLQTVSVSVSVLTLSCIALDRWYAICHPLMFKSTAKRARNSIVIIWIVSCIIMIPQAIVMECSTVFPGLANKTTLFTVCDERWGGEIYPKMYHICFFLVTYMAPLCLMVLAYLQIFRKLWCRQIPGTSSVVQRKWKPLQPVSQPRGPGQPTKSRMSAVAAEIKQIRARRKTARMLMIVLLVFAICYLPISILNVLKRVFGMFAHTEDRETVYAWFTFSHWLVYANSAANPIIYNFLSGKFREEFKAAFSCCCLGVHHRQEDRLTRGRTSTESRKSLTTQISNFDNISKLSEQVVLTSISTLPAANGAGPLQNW
- assay.name: In vitro assay: intracellular calcium measurements (FLIPR), antagonistic activity
- Assay type: cell-based
- details: CHO cells, 3 nM orexin-A, compound incubation 120 min; marked values are geometric means of n = 2-6; read-out: IC50 OX2
measured.metric: log10 IC50 (log10 of the value in nM)
Units before log transform: nM; reported quantity: IC50; transform: log10.

Could you share which log10 IC50 value was measured for CCOc1cccc(F)c1C1CC(C)C(=O)N1Cc1ccc(OC(F)F)cc1 (centres unmarked) [Example 373] ?
1.81

Which log10 IC50 value belongs to O=C1CCC(c2ccccc2-c2ccccc2)N1Cc1csc(-c2ccccc2)n1 (centres unmarked) [Example 288] ?
3.14

Entry O=C1CCCC(c2ccccc2-c2ccccc2)N1Cc1cccc(-c2ccccc2)c1 (centres unmarked) [Example 284] has what log10 IC50?
2.86

# query: log10 IC50 of entry COc1cccc(OC)c1C1CCCC(=O)N1Cc1ccc2nc(C)sc2c1 (centres unmarked) [Example 47]
2.22

Which log10 IC50 is listed for COc1cc(F)cc(OC)c1C1CCCC(=O)N1Cc1cccc(-c2ccccc2)c1 (centres unmarked) [Example 234] ?
2.37
